Reference source: patent US20190031618A1

Target: Human CB1R (Cannabinoid receptor 1) (Homo sapiens, UniProt P21554)
Sequence (P21554 whole entry): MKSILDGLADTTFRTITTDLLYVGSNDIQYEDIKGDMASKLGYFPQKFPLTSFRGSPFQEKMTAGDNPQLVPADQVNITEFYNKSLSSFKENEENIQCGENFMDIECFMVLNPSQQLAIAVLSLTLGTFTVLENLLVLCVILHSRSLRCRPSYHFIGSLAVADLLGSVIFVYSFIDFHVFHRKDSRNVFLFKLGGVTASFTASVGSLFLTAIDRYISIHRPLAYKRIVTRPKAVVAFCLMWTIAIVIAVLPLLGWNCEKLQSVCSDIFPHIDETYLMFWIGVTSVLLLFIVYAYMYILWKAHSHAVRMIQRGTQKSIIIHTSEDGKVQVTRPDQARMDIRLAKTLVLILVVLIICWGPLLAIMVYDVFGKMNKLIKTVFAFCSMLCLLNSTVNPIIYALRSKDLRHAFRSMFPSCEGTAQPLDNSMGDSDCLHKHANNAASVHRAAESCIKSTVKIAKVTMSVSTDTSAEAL
Assay: CB-1 in vitro cAMP (HTRF) assay
Assay type: cell-based
Conditions: HEK cells, cAMP HTRF, 250 nM forskolin; mean where tested more than once; read-out: CB1 HEK_cAMP EC50
Result type: pEC50
Give bare numbers, as −log10 of the molar value.

Solved entries:
O=C(O)c1ccc(S(=O)(=O)N2CCC(n3c(C4CC4)nc4ccc(C(c5ccc(Cl)cc5)c5ccc(Cl)cc5)cc43)CC2)cc1Cl [Example 253] = 8.33
CCc1nc2ccc(C(c3ccc(Cl)cc3)c3ccc(Cl)cc3)cc2n1CCc1cccc(Cl)c1 [Example 311] = 7.76
O=C(O)c1cccc(CN2CCC(n3c(C4CC4)nc4ccc(C(c5ccccc5)c5ccc(Cl)cc5)cc43)CC2)c1 (centres unmarked) [Example 101] = 7.55
O=C(O)COc1ccc(S(=O)(=O)N2CCC(n3c(C4CC4)nc4ccc(C(c5ccc(Cl)cc5)c5ccc(Cl)cc5)cc43)CC2)cc1 [Example 256] = 6.89
COC(=O)C(c1ccc(Cl)cc1)(c1ccc(Cl)cc1)c1ccc2nc(C3CC3)n(CC3CCN(S(=O)(=O)C(F)(F)F)CC3)c2c1 [Example 14] = 7.77

For every item in the list below, what is its measured pEC50?
1. CC(c1cccc(C(=O)O)c1)N1CCC(n2c(C3CC3)nc3ccc(C(c4ccc(Cl)cc4)c4ccc(Cl)cc4)cc32)CC1 (single isomer, unassigned) [Example 47]
2. COc1cc(S(=O)(=O)N2CCC(n3c(C4CC4)nc4ccc(C(CO)(c5ccc(Cl)cc5)c5ccc(Cl)cc5)cc43)CC2)ccc1C(N)=O [Example 192]
3. O=C(OCc1ccccc1)N1CCC(n2c(C3CC3)nc3ccc(C(c4ccc(Cl)cc4)c4ccc(Cl)cc4)cc32)CC1 [Example 69]

8.62
5.30
8.07

* * *

Molecular target: Human CB2R (Cannabinoid receptor 2) (Homo sapiens, UniProt P34972)
Sequence (P34972 whole entry): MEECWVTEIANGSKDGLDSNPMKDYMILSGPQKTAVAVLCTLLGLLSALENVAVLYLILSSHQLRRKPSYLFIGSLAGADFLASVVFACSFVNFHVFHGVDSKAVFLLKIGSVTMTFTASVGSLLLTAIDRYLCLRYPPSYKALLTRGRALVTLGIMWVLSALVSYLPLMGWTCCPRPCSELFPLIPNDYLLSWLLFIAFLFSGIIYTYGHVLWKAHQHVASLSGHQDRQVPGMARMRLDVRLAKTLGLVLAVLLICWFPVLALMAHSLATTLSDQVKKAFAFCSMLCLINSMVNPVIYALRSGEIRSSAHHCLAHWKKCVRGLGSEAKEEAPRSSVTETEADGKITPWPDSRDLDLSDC
Assay: CB-2 in vitro cAMP (HTRF) assay
Settings: HEK cells, cAMP HTRF, 250 nM forskolin; mean where tested more than once; read-out: CB2 HEK_cAMP EC50
pEC50: −log10 of the molar value.
Kindly supply the reported pEC50 values for the records listed here.

Clc1ccc(-c2nc3ccc(C(c4ccc(Cl)cc4)c4nccs4)cc3n2C2CCCCC2)cc1 (stereo not drawn) = < 5.00

For every item in the list below, what is its measured pEC50?
1. CCCc1nc2ccc(C(c3ccc(Cl)cc3)c3nccs3)cc2n1C1CCN(C(=O)OCC)CC1 (stereo not drawn)
2. COCC(c1ccc(Cl)cc1)(c1ccc(Cl)cc1)c1ccc2nc(C3CC3)n(C3CCN(S(=O)(=O)c4ccc(C(=O)O)c(Cl)c4)CC3)c2c1
3. CCOC(=O)c1nc2ccc(C(c3ccc(Cl)cc3)c3nccs3)cc2n1C1CCN(C(=O)OCC)CC1 (stereo not drawn)
4. O=C(O)c1ccc(CN2CCC(n3c(C4CC4)nc4ccc(C(c5ccc(Cl)cc5)c5ccc(Cl)cc5)cc43)CC2)nc1
5. CCCc1nc2ccc(C(c3ccc(Cl)cc3)c3nccs3)cc2n1CCc1cccc(Cl)c1 (stereo not drawn)

< 5.00
< 5.00
< 5.00
< 5.00
< 5.00

* * *

Kindly supply the reported EC50 values for the records listed here.
Target: UniProtKB P34972
Experiment: CB-2 in vitro cAMP (HTRF) assay
Settings: HEK cells, cAMP HTRF, 250 nM forskolin; mean where tested more than once; read-out: CB2 HEK_cAMP EC50
Numbers only, in µM.

Solved entries:
O=C(O)c1ccc(S(=O)(=O)N2CCC(n3c(C4CC4)nc4ccc(C(c5ccc(Cl)cc5)c5ccc(Cl)cc5)cc43)CC2)o1 = 8.86
Oc1ccc(Cn2c(C3CC3)nc3ccc(C(c4ccc(Cl)cc4)c4ccc(Cl)cc4)cc32)cc1 = 6.3
O=C(O)c1ccc(S(=O)(=O)N[C@H]2CC[C@H](n3c(C4CC4)nc4ccc(C(c5ccc(Cl)cc5)c5ccc(Cl)cc5)cc43)CC2)cc1 = 4.54
O=C(O)c1cccc(S(=O)(=O)N[C@H]2CC[C@H](n3c(C4CC4)nc4ccc(C(c5ccc(Cl)cc5)c5ccc(Cl)cc5)cc43)CC2)c1 = 1.52
Clc1ccc(C(c2ccc3nc(-c4ccoc4)n(-c4cccc(Cl)c4)c3c2)c2nccs2)cc1 (stereo not drawn) = 0.272

For every item in the list below, what is its measured EC50?
1. NC(=O)c1ccc(Cn2c(C3CC3)nc3ccc(C(c4ccc(Cl)cc4)c4ccc(Cl)cc4)cc32)cc1
2. O=C(O)c1cc(S(=O)(=O)N2CCC(n3c(C4CC4)nc4ccc(C(c5ccc(Cl)cc5)c5ccc(Cl)cc5)cc43)CC2)ccc1Cl
3. CCc1nc2ccc(C(c3ccc(Cl)cc3)c3ccc(Cl)cc3)cc2n1CCc1cccc(Cl)c1
4. O=C(O)c1ccc(S(=O)(=O)N2CCC(n3c(C4CC4)nc4ccc(C(c5ccc(Cl)cc5)c5ccc(Cl)cc5)cc43)CC2)cc1C(F)(F)F
5. O=C(O)c1cccc(OCCn2c(C3CC3)nc3ccc(C(c4ccc(Cl)cc4)c4ccc(Cl)cc4)cc32)c1

[3.5, 5.05, 8.6, 5.02, 1.88]
